Structures can show the parent of a compound that is named as a salt.
Let's look at some compounds and their measured melting point.

Consider the reported melting point for these compounds:
{"compound": "COc1cccc2c1nc(C(F)F)n2-c1nc(N2CCOCC2)nc(N2CC[C@@H](NC(=O)CCl)C2)n1", "measValue": "270 to 275 °C"}
{"compound": "COc1cccc2c1nc(C(F)F)n2-c1nc(-c2ccncc2)nc(N2CCN(C(=O)CCl)CC2)n1 (as salt: hydrochloride)", "measValue": "> 300 °C"}

Looking for the measured melting point of COc1cccc2c1nc(C(F)F)n2-c1nc(N2CCOCC2)nc(N(C)C2CN(C(=O)CCl)C2)n1 , can you help?
220 to 222 °C

How about this compound: COc1cccc2c1nc(C(F)F)n2-c1nc(N2CCOCC2)nc(N2CCC(N(C)C(=O)CCl)CC2)n1
206 to 208 °C

Another compound: COc1cccc2c1nc(C(F)F)n2-c1nc(N2CCOCC2)nc(N2CCN(C(=O)C(Cl)Cl)CC2)n1
275 to 278 °C

###

measurementKind: melting point

The cases that follow already have their melting point on record.
{"compound": "O=C(CCl)N1CCN(c2nc(-c3cccc(O)c3)nc(N3CCOCC3)n2)CC1 [Example 1]", "melting point": "242 to 245 °C"}
{"compound": "COc1cccc2c1nc(C(F)F)n2-c1nc(N2CCOCC2)nc(N(C)C2CCN(S(=O)(=O)CCl)CC2)n1 [Example 21]", "melting point": "212 to 215 °C"}
{"compound": "COc1cccc2c1nc(C(F)F)n2-c1nc(N2CCOCC2)nc(N(C)[C@H]2CCN(C(=O)CCl)C2)n1 [Example 32]", "melting point": "219 to 221 °C"}

Look up melting point for this compound: COc1cccc2c1nc(C(F)F)n2-c1nc(N[C@@H]2CCN(C(=O)CCl)C2)nc(N2CCOCC2)n1 [Example 29]
208 to 210 °C

Could you do the same for COc1cccc2c1nc(C(F)F)n2-c1nc(N2CCOCC2)c2cnn(C3CCN(S(=O)(=O)CCl)CC3)c2n1 [Example 48] , please?
250 to 253 °C

###

- Tested on: NZOV9
- protocolNotes: Cellular growth inhibition, 3H-thymidine incorporation
- Assay type: cell-based, human
- reportedConditions: five days, 3H-thymidine over last 6 hrs; fifth data column
pIC50: −log10 of the molar value.
measurementKind: pIC50

Give its pIC50 value. Item: COc1cccc2c1nc(C(F)F)n2-c1nc(N2CCOCC2)nc(N(C)[C@@H]2CCCN(C(=O)CCl)C2)n1 [Example 39]
> 7.00

###

The reader will find reported melting point values listed item by item below.
Counter-ions that a name gives are not always drawn.

Completed entries (count: 3):
{"molecule": "CN(C)CCCOc1cccc2c1nc(C(F)F)n2-c1nc(N2CCOCC2)nc(N(C)C2CCN(C(=O)CCl)CC2)n1 (as salt: hydrochloride)", "measValue": "128 °C (dec.)"}
{"molecule": "COc1cccc2c1nc(C(F)F)n2-c1nc(N2CCOCC2)nc(N2CC(NC(=O)CCl)C2)n1", "measValue": "272 to 275 °C"}
{"molecule": "COc1cccc2c1nc(C(F)F)n2-c1nc(N2CCOCC2)nc(N2CCC[C@@H](NC(=O)CCl)C2)n1", "measValue": "231 to 233 °C"}

Using the record for COc1cccc2c1nc(C(F)F)n2-c1nc(N[C@H]2CCN(C(=O)CCl)C2)nc(N2CCOCC2)n1 , report its melting point.
208 to 211 °C

Moving on to the next molecule: COc1cccc2c1nc(C(F)F)n2-c1nc(N2CCOCC2)nc(N2CCC[C@H](NC(=O)CCl)C2)n1
227 to 229 °C

Thanks! And COc1cccc2c1nc(C(F)F)n2-c1nc(N[C@@H]2CCCN(C(=O)CCl)C2)nc(N2CCOCC2)n1 ?
190 to 192 °C

How about this molecule: COc1cccc2c1nc(C(F)F)n2-c1nc(N2CCOCC2)nc(N(C)C2CCN(C(=O)CCl)CC2)n1
211 to 213 °C

Note, next up: COc1cccc2c1nc(C(F)F)n2-c1nc(NC2CCN(C(=O)CCl)CC2)nc(N2CCOCC2)n1
270 to 273 °C

###

Counter-ions that a name gives are not always drawn.
measurementKind: melting point

{"compound": "COc1cccc2c1nc(C(F)F)n2-c1nc(NC2CN(C(=O)CCl)C2)nc(N2CCOCC2)n1", "melting point": "219 to 221 °C"}
{"compound": "CN(C)CCCOc1cccc2c1nc(C(F)F)n2-c1nc(N2CCOCC2)nc(N2CCN(S(=O)(=O)CCl)CC2)n1 (as salt: hydrochloride)", "melting point": "243 to 247 °C"}
{"compound": "COc1cccc2c1nc(C(F)F)n2-c1nc(N2CCOCC2)nc(N2CC[C@@H](N(C)C(=O)CCl)C2)n1", "melting point": "231 to 233 °C"}

Dear colleague, I am looking for the recorded melting point of the following compound: COc1cccc2c1nc(C(F)F)n2-c1cc(N2CCOCC2)nc(N2CCN(S(=O)(=O)CCl)CC2)n1
215 to 218 °C

###

measurementKind: melting point

{"compound": "COc1cccc2c1nc(C(F)F)n2-c1nc(OC2CCN(C(=O)CCl)CC2)nc(N2CCOCC2)n1 [Example 45]", "measurementKind": "melting point", "measValue": "170 to 172 °C"}
{"compound": "COc1cccc2c1nc(C(F)F)n2-c1nc(N2CCOCC2)nc(N(C)[C@@H]2CCN(C(=O)CCl)C2)n1 [Example 31]", "measurementKind": "melting point", "measValue": "219 to 221 °C"}
{"compound": "COc1cccc2c1nc(C(F)F)n2-c1cc(N2CCN(S(=O)(=O)CCl)CC2)nc(N2CCOCC2)n1 [Example 15]", "measurementKind": "melting point", "measValue": "220 to 222 °C"}

State the recorded melting point for this entry: COc1cccc2c1nc(C(F)F)n2-c1nc(N2CCOCC2)nc(N2CCC(NC(=O)CCl)CC2)n1 [Example 22]
252 to 254 °C

And for COc1cccc2c1nc(C(F)F)n2-c1nc(N2CCOCC2)nc(N2CCC[C@@H](N(C)C(=O)CCl)C2)n1 [Example 35] ?
201 to 203 °C

How about COc1cccc2c1nc(C(F)F)n2-c1nc(N2CCOCC2)nc(N2CC[C@H](N(C)C(=O)CCl)C2)n1 [Example 28] ?
230 to 232 °C

Could you do the same for COc1cccc2c1nc(C(F)F)n2-c1nc(N2CCOCC2)nc(N2CCN(C(=O)CCl)CC2)n1 [Example 4] , please?
241 to 243 °C

Next compound up: COc1cccc2c1nc(C(F)F)n2-c1nc(N2CCOCC2)nc(N2CCN(C(=O)COS(C)(=O)=O)CC2)n1 [Example 9]
176 to 180 °C

What about this compound? COc1cccc2c1nc(C(F)F)n2-c1nc(N2CCOCC2)nc(N2CCN(S(=O)(=O)CCl)CC2)n1 [Example 11]
261 to 263 °C

Quick one: COc1cccc2c1nc(C(F)F)n2-c1nc(N2CCOCC2)nc(N2CC(N(C)C(=O)CCl)C2)n1 [Example 42]
233 to 236 °C

Request: CCOc1cccc2c1nc(C(F)F)n2-c1nc(N2CCOCC2)nc(N2CCN(C(=O)CCl)CC2)n1 [Example 2]
217 to 219 °C

###

Measured melting point, listed per entry for reference.

Please review the entries below; each comes with its answer.
{"chemicalSmiles": "O=C(CCl)N1CCN(c2nc(N3CCOCC3)nc(-n3c(C(F)F)nc4ccccc43)n2)CC1", "melting point": "189 to 191 °C"}
{"chemicalSmiles": "O=C(CCl)N1CCN(c2nc(N3CCOCC3)nc(-n3c(C(F)F)nc4c(O)cccc43)n2)CC1", "melting point": "267 to 270 °C"}
{"chemicalSmiles": "COc1cccc2c1nc(C(F)F)n2-c1nc(N2CCOCC2)nc(N2CCN(S(=O)(=O)CBr)CC2)n1", "melting point": "259 to 262 °C"}
{"chemicalSmiles": "COc1cccc2c1nc(C(F)F)n2-c1nc(N2CCOCC2)cc(N2CCN(S(=O)(=O)CCl)CC2)n1", "melting point": "229 to 232 °C"}

If you can, please state the reported melting point value of COc1cccc2c1nc(C(F)F)n2-c1nc(C2CCN(C(=O)CCl)CC2)nc(N2CCOCC2)n1 .
241 to 243 °C

Cited source: patent US20110053907A1
